Overview of recorded % Native product for various compounds
biological target: Human mitochondrial RNA polymerase (POLRMT) (Homo sapiens, UniProt O00411); experiment: POLRMT primer extension; format: biochemical; settings: Native:F ratio 1:10
Sequence (O00411 42-1230): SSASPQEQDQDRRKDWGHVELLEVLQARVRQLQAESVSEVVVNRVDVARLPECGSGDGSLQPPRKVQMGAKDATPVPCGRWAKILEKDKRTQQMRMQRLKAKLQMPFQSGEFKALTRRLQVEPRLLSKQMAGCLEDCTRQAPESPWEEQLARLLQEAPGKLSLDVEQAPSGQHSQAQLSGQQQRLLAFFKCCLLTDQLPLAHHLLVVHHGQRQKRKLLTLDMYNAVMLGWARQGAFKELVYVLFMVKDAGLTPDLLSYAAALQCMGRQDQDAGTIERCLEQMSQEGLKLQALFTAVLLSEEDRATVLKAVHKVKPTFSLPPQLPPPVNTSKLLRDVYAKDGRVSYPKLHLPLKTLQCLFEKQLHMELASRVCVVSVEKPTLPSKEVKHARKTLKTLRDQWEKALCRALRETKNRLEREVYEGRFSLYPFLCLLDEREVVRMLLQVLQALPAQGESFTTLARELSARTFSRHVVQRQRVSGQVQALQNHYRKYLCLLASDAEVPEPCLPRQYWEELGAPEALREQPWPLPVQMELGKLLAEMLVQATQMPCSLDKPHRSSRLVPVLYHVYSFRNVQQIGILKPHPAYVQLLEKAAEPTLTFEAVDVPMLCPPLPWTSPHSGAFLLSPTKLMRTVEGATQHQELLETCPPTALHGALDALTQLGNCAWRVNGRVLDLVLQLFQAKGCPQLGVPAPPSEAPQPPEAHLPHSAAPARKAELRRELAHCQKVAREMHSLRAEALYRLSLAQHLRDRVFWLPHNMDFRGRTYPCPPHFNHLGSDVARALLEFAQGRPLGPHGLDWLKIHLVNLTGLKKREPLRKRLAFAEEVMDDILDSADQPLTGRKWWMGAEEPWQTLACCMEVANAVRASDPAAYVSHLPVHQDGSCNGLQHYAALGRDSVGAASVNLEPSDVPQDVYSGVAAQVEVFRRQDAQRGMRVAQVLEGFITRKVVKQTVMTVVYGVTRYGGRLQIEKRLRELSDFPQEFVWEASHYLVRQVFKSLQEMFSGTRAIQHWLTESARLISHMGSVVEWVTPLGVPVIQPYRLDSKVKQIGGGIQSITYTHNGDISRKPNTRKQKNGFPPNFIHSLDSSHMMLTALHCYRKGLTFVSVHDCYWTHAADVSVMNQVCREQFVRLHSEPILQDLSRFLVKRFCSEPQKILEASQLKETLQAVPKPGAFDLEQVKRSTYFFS
Marks after values point to notes of the source that are not given here.

>  <compound>
Nc1nc2c(ncn2[C@@H]2O[C@H](COP(=O)(O)OP(=O)(O)OP(=O)(O)O)[C@@H](O)[C@H]2F)c(=O)[nH]1

>  <result>
83.4^a %

$$$$
>  <compound>
Nc1ncnc2c1ncn2[C@@H]1O[C@H](COP(=O)(O)OP(=O)(O)OP(=O)(O)O)[C@@H](O)[C@H]1F

>  <result>
63.5^a %

$$$$
>  <compound>
Nc1ccn([C@@H]2O[C@H](COP(=O)(O)OP(=O)(O)OP(=O)(O)O)[C@@H](O)[C@H]2F)c(=O)n1

>  <result>
43.7^a %

$$$$

Enquiry: May I ask what % Native product has been recorded for O=c1ccn([C@@H]2O[C@H](COP(=O)(O)OP(=O)(O)OP(=O)(O)O)[C@@H](O)[C@H]2F)c(=O)[nH]1 ?
Return: 45.3^a %

Enquiry: Also check O=c1[nH]c(=O)n([C@@H]2O[C@H](COP(=O)(O)OP(=O)(O)OP(=O)(O)O)[C@@H](O)[C@@H]2F)cc1I [FIAU-TP, fialuridine triphosphate, reference compound]
Return: 25.4^a %

###

target: human mitochondrial DNA polymerase γ (Pol-γ exo-mutant) (Homo sapiens, UniProt P54098, D198A/E200A); assay: Pol-γ primer extension; format: biochemical; details: Native only (no 2′-F-NTP)
Sequence (P54098 26-1239 D198A/E200A limits assumed): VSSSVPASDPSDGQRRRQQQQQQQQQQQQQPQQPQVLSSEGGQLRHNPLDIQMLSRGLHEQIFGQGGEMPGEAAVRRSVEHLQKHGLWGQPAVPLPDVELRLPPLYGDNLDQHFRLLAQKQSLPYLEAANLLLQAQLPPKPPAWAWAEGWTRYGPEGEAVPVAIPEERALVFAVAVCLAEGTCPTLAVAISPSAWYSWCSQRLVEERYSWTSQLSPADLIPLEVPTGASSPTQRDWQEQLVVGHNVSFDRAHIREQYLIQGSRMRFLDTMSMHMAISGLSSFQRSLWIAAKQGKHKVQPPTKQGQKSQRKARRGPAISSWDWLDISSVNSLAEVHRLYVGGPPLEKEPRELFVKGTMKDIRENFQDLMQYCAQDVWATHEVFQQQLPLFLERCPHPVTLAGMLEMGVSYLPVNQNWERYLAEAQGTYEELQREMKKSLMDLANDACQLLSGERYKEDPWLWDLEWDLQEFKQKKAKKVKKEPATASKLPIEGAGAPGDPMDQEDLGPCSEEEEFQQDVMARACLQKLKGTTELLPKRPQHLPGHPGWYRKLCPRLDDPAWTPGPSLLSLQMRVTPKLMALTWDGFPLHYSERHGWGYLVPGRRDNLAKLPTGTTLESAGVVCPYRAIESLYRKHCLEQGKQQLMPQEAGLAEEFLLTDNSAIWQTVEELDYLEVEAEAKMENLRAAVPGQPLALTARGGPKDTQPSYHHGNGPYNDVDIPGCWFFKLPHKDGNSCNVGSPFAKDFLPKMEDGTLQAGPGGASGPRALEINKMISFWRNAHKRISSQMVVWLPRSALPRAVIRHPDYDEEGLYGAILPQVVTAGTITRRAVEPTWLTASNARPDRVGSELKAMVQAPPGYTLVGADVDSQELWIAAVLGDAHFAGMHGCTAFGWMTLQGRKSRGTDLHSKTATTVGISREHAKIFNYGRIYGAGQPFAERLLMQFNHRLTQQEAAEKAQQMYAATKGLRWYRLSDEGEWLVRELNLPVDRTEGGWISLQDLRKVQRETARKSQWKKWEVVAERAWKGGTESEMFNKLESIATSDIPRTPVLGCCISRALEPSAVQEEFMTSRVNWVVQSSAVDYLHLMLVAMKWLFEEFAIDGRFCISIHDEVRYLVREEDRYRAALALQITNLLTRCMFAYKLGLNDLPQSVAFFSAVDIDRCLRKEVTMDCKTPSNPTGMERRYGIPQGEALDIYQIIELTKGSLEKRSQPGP
Marks after values point to notes of the source that are not given here.
experimentalReadout: % Native product

>  <molecule>
Nc1ncnc2c1ncn2[C@@H]1O[C@H](COP(=O)(O)OP(=O)(O)OP(=O)(O)O)[C@@H](O)[C@H]1F

>  <result>
95.9^a %

$$$$

Enquiry: May I ask what % Native product has been recorded for Nc1ccn([C@@H]2O[C@H](COP(=O)(O)OP(=O)(O)OP(=O)(O)O)[C@@H](O)[C@H]2F)c(=O)n1 ?
Return: 97.3^a %

Enquiry: Also check O=c1ccn([C@@H]2O[C@H](COP(=O)(O)OP(=O)(O)OP(=O)(O)O)[C@@H](O)[C@H]2F)c(=O)[nH]1
Return: 83.3^a %

Enquiry: Also check Nc1nc2c(ncn2[C@@H]2O[C@H](COP(=O)(O)OP(=O)(O)OP(=O)(O)O)[C@@H](O)[C@H]2F)c(=O)[nH]1
Return: 89.2^a %

Enquiry: Also check O=c1[nH]c(=O)n([C@@H]2O[C@H](COP(=O)(O)OP(=O)(O)OP(=O)(O)O)[C@@H](O)[C@@H]2F)cc1I [FIAU-TP, fialuridine triphosphate, reference compound]
Return: 98.3^a %

###

molecular target: human mitochondrial DNA polymerase γ (Pol-γ exo-mutant) (Homo sapiens, UniProt P54098, D198A/E200A); experiment: Pol-γ primer extension; format: biochemical; settings: Native:F ratio 1:100
Marks after values point to notes of the source that are not given here.
Overview of recorded % 2′-F product for various compounds

Here are 2 compounds together with their reported answers.
>  <compound>
O=c1ccn([C@@H]2O[C@H](COP(=O)(O)OP(=O)(O)OP(=O)(O)O)[C@@H](O)[C@H]2F)c(=O)[nH]1 [2′-F-UTP]

>  <result>
7.6^b %

$$$$
>  <compound>
Nc1ncnc2c1ncn2[C@@H]1O[C@H](COP(=O)(O)OP(=O)(O)OP(=O)(O)O)[C@@H](O)[C@H]1F [2′-F-ATP]

>  <result>
17.6^b %

$$$$

Enquiry: May I ask what % 2′-F product has been recorded for Nc1ccn([C@@H]2O[C@H](COP(=O)(O)OP(=O)(O)OP(=O)(O)O)[C@@H](O)[C@H]2F)c(=O)n1 [2′-F-CTP] ?
Return: 30.9^b %

Enquiry: Also check Nc1nc2c(ncn2[C@@H]2O[C@H](COP(=O)(O)OP(=O)(O)OP(=O)(O)O)[C@@H](O)[C@H]2F)c(=O)[nH]1 [2′-F-GTP]
Return: 23.7^b %

Enquiry: Also check O=c1[nH]c(=O)n([C@@H]2O[C@H](COP(=O)(O)OP(=O)(O)OP(=O)(O)O)[C@@H](O)[C@@H]2F)cc1I [FIAU-TP, fialuridine triphosphate, reference compound]
Return: 82.7^b %

###

These records show pIC50 for DNA polymerase β (Pol-β) (Homo sapiens, UniProt P06746).
In simple prose, pIC50 is minus the logarithm base ten of a concentration in moles per litre.

Here are 2 molecules together with their reported answers.
>  <molecule>
O=c1[nH]c(=O)n([C@@H]2O[C@H](COP(=O)(O)OP(=O)(O)OP(=O)(O)O)[C@@H](O)[C@@H]2F)cc1I [FIAU-TP, fialuridine triphosphate, reference compound]

>  <system>
DNA polymerase β (Pol-β) (Homo sapiens, UniProt P06746)

>  <experimentalReadout>
pIC50

>  <numericReadout>
6.43

$$$$
>  <molecule>
Nc1ncnc2c1ncn2[C@@H]1O[C@H](COP(=O)(O)OP(=O)(O)OP(=O)(O)O)[C@@H](O)[C@H]1F

>  <system>
DNA polymerase β (Pol-β) (Homo sapiens, UniProt P06746)

>  <experimentalReadout>
pIC50

>  <numericReadout>
3.76

$$$$

In the following, a different molecule is considered.
Enquiry: May I ask what pIC50 has been recorded for O=c1ccn([C@@H]2O[C@H](COP(=O)(O)OP(=O)(O)OP(=O)(O)O)[C@@H](O)[C@H]2F)c(=O)[nH]1 ?
Return: 4.04

###

assay type: in vivo, Sprague Dawley rats; conditions: rat kidney; ALN-TTRSC02 (ESC), single 30 mg/kg sc
experimentalReadout: Cmax

Enquiry: May I ask what Cmax has been recorded for Nc1nc2c(ncn2[C@@H]2O[C@H](CO)[C@@H](O)[C@H]2F)c(=O)[nH]1 [2′-F-G, 2′-F-guanosine] ?
Return: < 500 nM

###

test system: COLO 205 (intestine); test: Cytotoxicity, sulforhodamine B assay, COLO 205; format: cell-based, human; settings: COLO 205, Galactose media, day 11
experimentalReadout: CC50 (µM)
Write the value in µM as a bare number.

Enquiry: May I ask what CC50 has been recorded for Nc1nc2c(ncn2[C@@H]2O[C@H](CO)[C@@H](O)[C@H]2F)c(=O)[nH]1 ?
Return: 22

###

Overview of recorded IC90 for various molecules
target: DNA polymerase γ (Pol-γ) (Homo sapiens); test: DNA polymerase inhibition assay, Pol-γ; assay type: biochemical; conditions: 1 h, 3H-dTTP incorporation
Sequence (P54098 whole entry): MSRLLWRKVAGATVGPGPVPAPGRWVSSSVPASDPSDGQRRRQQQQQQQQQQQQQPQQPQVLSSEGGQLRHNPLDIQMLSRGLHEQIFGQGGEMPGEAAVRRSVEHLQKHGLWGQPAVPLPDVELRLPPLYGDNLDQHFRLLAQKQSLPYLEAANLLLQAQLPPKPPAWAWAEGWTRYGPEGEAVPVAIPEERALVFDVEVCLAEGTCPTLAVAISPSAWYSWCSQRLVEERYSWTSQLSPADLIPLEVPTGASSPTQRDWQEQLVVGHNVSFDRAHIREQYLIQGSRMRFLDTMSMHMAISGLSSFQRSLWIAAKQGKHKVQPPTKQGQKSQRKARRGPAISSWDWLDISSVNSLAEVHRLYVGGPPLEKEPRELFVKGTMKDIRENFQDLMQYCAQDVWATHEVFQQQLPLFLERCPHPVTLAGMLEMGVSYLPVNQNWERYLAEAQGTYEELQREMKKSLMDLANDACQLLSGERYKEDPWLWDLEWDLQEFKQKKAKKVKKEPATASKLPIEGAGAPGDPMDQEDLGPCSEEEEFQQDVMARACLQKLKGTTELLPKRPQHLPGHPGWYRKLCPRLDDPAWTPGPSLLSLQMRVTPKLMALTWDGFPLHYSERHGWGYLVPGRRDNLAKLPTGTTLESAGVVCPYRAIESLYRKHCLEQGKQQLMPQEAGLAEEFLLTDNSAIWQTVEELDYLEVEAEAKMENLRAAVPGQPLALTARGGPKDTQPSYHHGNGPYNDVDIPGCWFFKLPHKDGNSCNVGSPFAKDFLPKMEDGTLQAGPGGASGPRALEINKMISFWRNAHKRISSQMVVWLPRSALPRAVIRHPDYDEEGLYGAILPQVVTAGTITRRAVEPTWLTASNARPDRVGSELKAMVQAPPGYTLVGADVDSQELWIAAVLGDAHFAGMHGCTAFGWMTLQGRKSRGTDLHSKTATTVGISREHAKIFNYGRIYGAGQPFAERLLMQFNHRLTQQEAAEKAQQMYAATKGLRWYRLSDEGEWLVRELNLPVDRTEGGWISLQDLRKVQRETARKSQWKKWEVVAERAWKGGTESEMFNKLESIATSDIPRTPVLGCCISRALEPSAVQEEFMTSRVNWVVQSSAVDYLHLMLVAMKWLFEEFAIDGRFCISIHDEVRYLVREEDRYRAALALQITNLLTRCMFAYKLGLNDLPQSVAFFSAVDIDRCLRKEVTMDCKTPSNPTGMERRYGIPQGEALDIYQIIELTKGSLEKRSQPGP

>  <molecule>
Nc1ncnc2c1ncn2[C@@H]1O[C@H](COP(=O)(O)OP(=O)(O)OP(=O)(O)O)[C@@H](O)[C@H]1F

>  <IC90>
> 200 µM

$$$$
>  <molecule>
O=c1[nH]c(=O)n([C@@H]2O[C@H](COP(=O)(O)OP(=O)(O)OP(=O)(O)O)[C@@H](O)[C@@H]2F)cc1I [FIAU-TP, fialuridine triphosphate, reference compound]

>  <IC90>
13.4 µM

$$$$

In the following, a different molecule is considered.
Enquiry: Record lookup: for DNA polymerase γ (Pol-γ) (Homo sapiens), what IC90 belongs to Nc1ccn([C@@H]2O[C@H](COP(=O)(O)OP(=O)(O)OP(=O)(O)O)[C@@H](O)[C@H]2F)c(=O)n1 ?
Return: > 200 µM

###

target: DNA polymerase β (Pol-β) (Homo sapiens, UniProt P06746)
pIC50: −log10 of the molar value.
experimentalReadout: pIC50

Here are 2 molecules together with their reported answers.
>  <querySmiles>
Nc1ccn([C@@H]2O[C@H](COP(=O)(O)OP(=O)(O)OP(=O)(O)O)[C@@H](O)[C@H]2F)c(=O)n1

>  <pIC50>
< 3.70

$$$$
>  <querySmiles>
O=P(O)(O)OP(=O)(O)OP(=O)(O)OC[C@H]1O[C@@H](n2cnc3c(O)ncnc32)[C@H](F)[C@@H]1O

>  <pIC50>
< 3.70

$$$$

In the following, a different molecule is considered.
Enquiry: May I ask what pIC50 has been recorded for Nc1nc2c(ncn2[C@@H]2O[C@H](COP(=O)(O)OP(=O)(O)OP(=O)(O)O)[C@@H](O)[C@H]2F)c(=O)[nH]1 ?
Return: < 3.70
